Reported nuclear beta-catenin stimulation values for a set of molecules
# method-description: stimulators of nuclear beta-catenin in C2C12, primary screen, imaging, WNT3A-conditioned medium, mouse C2C12, NPC library (AID 1117326); note: reference of the scale not given here
# test-settings: at 10 µM, hits give high values
Reply with just the number (in %).

Example results:
INSERT INTO measurements (structure, reported_measurement) VALUES
  ('CCC1(c2cnc[nH]2)Cc2ccccc2C1', 1.2),
  ('O=C(Nc1ncc([N+](=O)[O-])s1)c1cccs1', -2.8);

Fill in: nuclear beta-catenin stimulation of CCCCCCCCCCCCCCCC[N+](C)(C)CC is ___
13.3

Ok, now CC(=O)Nc1ccc(S(=O)(=O)Nc2cc(C)on2)cc1
1.7

Ok, now CCCOC(=O)c1ccc(N)cc1
-0.1

Ok, now CCC(=O)O[C@]1(C(=O)CCl)[C@@H](C)C[C@H]2[C@@H]3CCC4=CC(=O)C=C[C@]4(C)[C@@]3(F)[C@@H](O)C[C@@]21C
4.4

These measurements were taken from PubChem BioAssay.
